# target_desc: T1, human transferrin receptor (recombinant, SPR) (human, UniProt P02786 89-760)
# T1 construct: also called huTfR; human transferrin receptor-biotinylated
# assay_procedure: SPR B4000 25C (Example 31)

binder: 2/99 VH23-DAQG/VK9-CYS (antibody, V domains shown) VH: QSMQESGPGLVKPSQTLSLTCTVSGFSLSSYAMSWIRQHPGKGLEWIGYIWSGGSTDYASWAKSRVTISKTSTTVSLKLSSVTAADTAVYYCARRYGTSYPDYGDAQGFDPWGQGTLVTVSS VL: AIQLTQSPSSLSASVGDRVTITCRASQSISSYLAWYQQKPGKAPKLLIYRASTLASGVPSRFSGSGSGTDFTLTISSLQPEDFATYYCQQCYSSSNVDNTFGGGTKVEI
koff [s⁻¹]: 0.00151
